Consider the following compounds and their measured inhibition at 10 µM readings.
# Study Target: μ-opiate receptor (Rattus norvegicus, UniProt P33535)
# Construct: homogenate of rat brain without cerebellum, pons and medulla oblongata of male Wistar rats; from tissue; host or cells: rat brain (without cerebellum, pons and medulla oblongata), male Wistar rats, membrane homogenate
# Sequence (P33535 whole entry): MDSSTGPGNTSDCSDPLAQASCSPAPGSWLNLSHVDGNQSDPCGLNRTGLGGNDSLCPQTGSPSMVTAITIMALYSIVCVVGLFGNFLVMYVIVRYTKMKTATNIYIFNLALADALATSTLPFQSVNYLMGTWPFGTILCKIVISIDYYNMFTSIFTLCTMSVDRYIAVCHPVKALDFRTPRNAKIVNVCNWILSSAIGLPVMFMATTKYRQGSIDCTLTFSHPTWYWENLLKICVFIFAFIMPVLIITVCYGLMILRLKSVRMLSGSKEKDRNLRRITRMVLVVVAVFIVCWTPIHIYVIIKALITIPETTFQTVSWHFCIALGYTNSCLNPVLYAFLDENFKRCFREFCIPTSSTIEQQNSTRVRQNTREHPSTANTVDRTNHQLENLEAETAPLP
# Assay Name: μ-Opiate receptor binding investigations on rat brain membrane homogenates with tritiated naloxone
# Measurement Parameters: 10 μM compound; rat brain membrane homogenate (male Wistar rats); 1 nmol/l tritiated naloxone as radioactive ligand; read-out: μ-affinity % inhibition 10 μM
Measurement Label: inhibition at 10 µM (%)

{"Compound String": "CC(=O)[n+]1c(-c2ccccc2)c(NC2CCCCC2)n2cccnc21", "Readout Value": 53}
{"Compound String": "CC(=O)[n+]1c(-c2ccccc2)c(NC(C)(C)C)n2ccsc21", "Readout Value": 90}
{"Compound String": "CC(=O)[n+]1c(-c2ccccc2)c(NC2CCCCC2)n2c3ccccc3ccc21", "Readout Value": 79}
{"Compound String": "CC(=O)[n+]1c(C)c(NC2CCCCC2)n2cccc(OCc3ccccc3)c21", "Readout Value": 91}
{"Compound String": "CC(=O)[n+]1c(C)c(NC(C)(C)C)n2cccc(OCc3ccccc3)c21", "Readout Value": 98}
